So I've got a bunch of binders here, and I need their koff values.
Target: T1, human PD-1 ECD/Fc fusion protein (human)
T1 construct: also called huPD-1/Fc; HuPD-1 ECD/Fc
T1 sequence (chain, as listed by the source limits assumed): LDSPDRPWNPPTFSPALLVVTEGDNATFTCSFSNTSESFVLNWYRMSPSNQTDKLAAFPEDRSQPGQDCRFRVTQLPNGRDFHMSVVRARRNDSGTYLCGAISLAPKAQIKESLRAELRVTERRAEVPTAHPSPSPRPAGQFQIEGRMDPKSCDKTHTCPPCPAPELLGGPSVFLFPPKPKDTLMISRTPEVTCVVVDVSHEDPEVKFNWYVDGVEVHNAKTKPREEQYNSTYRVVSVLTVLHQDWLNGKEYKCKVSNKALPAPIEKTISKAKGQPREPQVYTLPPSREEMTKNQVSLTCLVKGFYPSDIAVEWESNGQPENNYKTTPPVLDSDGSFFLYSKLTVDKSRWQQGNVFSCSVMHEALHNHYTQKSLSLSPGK
Test: BLI Octet, immobilized huPD-1-Fc, Ab analyte
Kindly answer with a numeric value in s⁻¹, unit omitted.

Input line: Which koff is reported for this binder? HumAb719-12 (antibody, human IgG1, kappa, L234A L235A, V domains shown, humanized mAb719) VH: EVQLLESGGGLVQPGGSLRLSCAASGFSFSSHLMSWVRQAPGKRLEWVAAISGGGADTYYPDSVKGRFTISRDNSKNTLYLQMNSLRAEDTAVYYCTRQILAFDSWGQGTTVTVSS VL: DIQMNQSPSSLSASVGDRVTITCHASQNIYVWLNWYQQKPGKAPKLLIYKASNLHTGVPSRFSGSGSGTDFTFTISSLQPEDIATYYCQQGQSYPWTFGGGTKVEIKR
Output line: 5.81e-05

Input line: Which koff value is on record for HumAb719-21 (antibody, human IgG1, kappa, L234A L235A, V domains shown, humanized mAb719; also called HuniAb719-21) VH: EVQLLESGGGLVQPGGSLRLSCAASGFSFSSHLMSWVRQAPGKRLEWVAAISGGGADTYYPASVKGRFTISRDNSKNTLYLQMNSLRAEDTAVYYCTRQILAFDAWGQGTTVTVSS VL: DIQMNQSPSSLSASVGDRVTITCHASQNIYVWLNWYQQKPGKIPKLLIYKASNLHTGVPSRFSGSGSGTDFTFTISSLQPEDIATYYCQQGQSYPWTFGGGTKVEIKR ?
Output line: 6.26e-05
